- System: C3H/HeN mice
- assay: Telogen Conversion Assay
- Assay type: in vivo
- conditions: Experiment 8; transcutol, ethanol, polypropylene glycol vehicle
observed.property: Induction of anagen (conclusion in words)

compound: CCOC(=O)CCCn1nnnc1-c1ccc2c(c1)[C@@H](Oc1ccnc(O)c1)[C@](C)(O)C(C)(C)O2
assay.target: C3H/HeN mice
observed: inactive

compound: CCOc1c(N[C@@H]2c3cc(S(=O)(=O)c4cccc(O)c4)ccc3OC(C)(C)[C@@]2(C)O)c(=O)c1=O
assay.target: C3H/HeN mice
observed: inactive

compound: Cn1nc(OC2c3cc(S(=O)(=O)c4ccc(O)cc4)ccc3OC(C)(C)C2(C)O)c2ccccc2c1=O (centres unmarked)
assay.target: C3H/HeN mice
observed: inactive

Where do these numbers come from? They come from patent US20050182065A1.
